I'd appreciate it if you could supply Selectivity Index values for the items below.
assay: Selectivity index, ratio of hemolytic EC50 for human RBC to MIC for Staphylococcus aureus ATCC 9144
The answer should be a number; do not append a unit.

Data request, read-out Selectivity Index, for CN(C(=O)c1cc(C(C)(C)C)cc(C(C)(C)C)c1)c1ccc(C(=O)NCCNC(=N)N)cc1.Cl
15.2

Bench note: what Selectivity Index did CC(C)(C)c1cc(C(=O)Nc2ccc(C(=O)NCCNC(=N)N)cc2)cc(C(C)(C)C)c1.Cl show?
9.5

Entry CC(C)(C)c1cc(C(=O)Nc2ccccc2C(=O)NCCNC(=N)N)cc(C(C)(C)C)c1.Cl has what Selectivity Index?
37
